experiment: viability loss with induced miR-34 in A549 – imaging, A549 dox-inducible miR-34, nuclei and caspase counts, primary screen (AID 1347080); conditions: A549 miR-34 inducible, Hoechst nuclei count, 48 h; measured here: total cells without miR-34 induction
cell count for assorted compounds
// return a plain number; no unit text

Consider the reported cell count for these compounds:
O=c1ccc2ccccc2[nH]1 | 9510
Cc1cc(Cn2cnc3c2C[C@@H](C(=O)O)N(C(=O)C(c2ccccc2)c2ccccc2)C3)ccc1N | 10200
COC1C(O)CC(=O)OC(C)CC=CC=CC(OC2CCC(N(C)C)C(C)O2)C(C)CC(CC=O)C1OC1OC(C)C(OC2C[C@](C)(O)C(O)C(C)O2)C(N(C)C)C1O (some centres undefined) | 8940

Name the reported cell count value associated with the compound O=C(Nc1cc(C(F)(F)F)ccc1N1CCCCC1)c1ccncc1
8120

I am curious: what cell count value has been reported for COc1ccc(-c2ccc3c(N4CCOCC4C)nc(N4CCOCC4C)nc3n2)cc1CO (centres undefined) ?
2770

====

experiment: P. berghei load reduction in hepatocytes – cell-based, HepG2, luciferase luminescence, HepG2 viability, primary screen (AID 624349);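 further: 100% = mean of DMSO negative control wells on the same plate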; details: P. berghei liver stage in HepG2, luciferase luminescence, concentration not given here; stronger effect = lower value
parasite load remaining vs 50%: less than gives condition met; not less than gives condition not met.

// known answers, use as guide
N#Cc1c(-c2ccccc2)cc(-c2cc(Br)ccc2O)[nH]c1=O | condition met
CN/C(=C/[N+](=O)[O-])NCCSCc1csc(CN(C)C)n1 | condition not met
O=C1C(Cl)=C(N2C(=O)CCC2=O)C(=O)c2ccccc21 | condition met
O=[N+]([O-])c1ccc(CNc2nc(NCc3cccc(C(F)(F)F)c3)nc3nc[nH]c23)cc1 | condition met
COC(=O)C1=CO[C@@H](C)[C@@H]2CN3CCc4c([nH]c5ccccc45)C3C[C@H]12 (stereo partly specified) | condition not met

Check if parasite load remaining falls below 50% for COC1CC(O[C@@H]2[C@H](C)[C@H](OC3OC(C)CC(N(C)C)C3OC(C)=O)[C@H](C)CC3(CO3)C(=O)[C@@H](C)C(OC(C)=O)[C@H](C)[C@H](C)OC(=O)[C@@H]2C)OC(C)C1OC(C)=O (stereo partly specified) .
condition not met

In plain terms, does N#CC(C#N)=C(N)/C(C#N)=C/c1ccc(O)cc1 come in under 50% for parasite load remaining?
condition met

Does this compound meet the criterion parasite load remaining < 50%? O=C(O)Cc1c2ccccc2n2c1[nH]c(=O)c1ccccc12
condition met

Given the entry CN(C)C/C=C(\c1ccc(Br)cc1)c1cccnc1 , would its reported parasite load remaining be below 50%?
condition met

Answer whether the compound CC(=O)O[C@]1(C(C)=O)CC[C@H]2[C@@H]3C=C(C)C4=CC(=O)CC[C@@H]4[C@H]3CC[C@@]21C has parasite load remaining strictly less than 50%
condition not met

Threshold test, parasite load remaining < 50%: COC1CC(O[C@H]2[C@H](C)[C@@H](OC3OC(C)CC(N(C)C)C3O)[C@@H](C)C[C@]3(CO3)C(=O)[C@H](C)[C@@H](O)[C@@H](C)[C@@H](C)OC(=O)[C@@H]2C)OC(C)C1O (stereo partly specified)
condition not met

Quick check: parasite load remaining of NCCCn1cc(C2=C(c3c[nH]c4ccccc34)C(=O)NC2=O)c2ccccc21 under 50%?
condition not met

Consider C=CC[N@@+]12CC[C@]34c5ccccc5N5/C=C6\C7N(/C=C(\C53)[C@@H](C[C@@H]41)/C(=C/CO)C2)c1ccccc1[C@@]71CC[N@@+]2(CC=C)C/C(=C\CO)[C@@H]6C[C@@H]12 (stereo partly specified) . Does its parasite load remaining lie strictly below 50%?
condition not met

For COc1cc(=O)n(C)c2c(OCC(O)C(C)(C)O)cccc12 (stereo unspecified) , is the recorded parasite load remaining below the cut-off of 50%?
condition not met

For this compound, is parasite load remaining lower than 50%? COc1c2c(nc3ccccc13)OC(C(C)(O)CO)C2 (stereo unspecified)
condition not met

====

assay: MELAS cybrid and Rieske KO viability enhancers – cell-based, MELAS cybrids, Rieske KO mouse fibroblasts, CellTiter-Glo, primary screen (AID 1508586); conditions: Rieske KO mouse fibroblast survival, low glucose, CellTiter-Glo 72 h;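 further: z relative to plate mean and SD of compound and empty wells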
Catalogue of z-score readings, one per entry.
Form rule: numeric answer, no unit written next to it.

CC(NC(=O)Cc1cc(F)cc(F)c1)C(=O)NC(C(=O)OC(C)(C)C)c1ccccc1 (configuration not stated) | 0.801
O=C1OC(C(O)CO)C(O)=C1O (configuration not stated) | -0.298
O=C(O)c1ccc(C=C2SC(=S)N(c3cccc(C(F)(F)F)c3)C2=O)cc1 | -3.49

Value lookup for z-score; key = CNc1nc(-c2ccc3c(N)n[nH]c3c2)cc(N2CC(C(=O)NC3CCCCC3)CCC2C)n1 (configuration not stated)
-0.229

Can you look up the measured z-score of c1ccc(NCc2ccc(CNc3ccccn3)cc2)nc1 for me?
-0.0229

====

Here the recorded inhibition is given for each entry.
assay: growth inhibition, single agent or in combination, cell-based, chromothripsis tumors, cisplatin or BGB combos (AID 1671449); conditions: LFS_MB_P medulloblastoma cells, measured here: combination with BGB IC20, at 0.005 µM;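 further: cells exposed for 96 hours; 0% = vehicle DMSO and 100% = killing by high DMSO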
Numbers only; they are read as %.

Some solved entries appear below for comparison.
NC(=O)c1cccc2cn(-c3ccc(C4CCCNC4)cc3)nc12 (stereo unspecified) | 9.92
CC(C)c1ccc(-c2cc(=O)c3ccccc3o2)cc1 | -13.4
CC1CN(c2c(F)c(N)c3c(=O)c(C(=O)O)cn(C4CC4)c3c2F)CC(C)N1 (stereo unspecified) | -4.46

Given the entry C[C@H](NC(=O)c1ccccc1N=Cc1c(O)ccc2ccccc12)c1ccccc1 , report its measured inhibition.
-24.4

# get_value(readout='inhibition', item= Nc1ncn(C2OC(CO)C(O)C2O)c(=O)n1 (stereo unspecified) )
12.2

Data request, read-out inhibition, for Cc1cn(C2CC(O)C(COP(=O)(O)OP(=O)(O)OP(=O)(O)O)O2)c(=O)[nH]c1=O (stereo unspecified)
-8.93

====

assay: drug combination growth inhibition, ovarian cancer – cell-based, oncology-focused library, rucaparib conditional, profiling panel (AID 1508598); conditions: patient-derived ovarian cancer cells, CellTiter-Glo viability, 144 h; at 0.000305 µM; OCI-P5x cells; without rucaparib
Active and inactive are the calls of the source.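 The calls were made as follows: active = normalized viability below 100% at a tested concentration; inactive = the rest.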
Output constraint: value belongs to active, inactive

Record excerpt, results attached:
C[C@]12CC[C@H]3c4ccc(O)cc4CC[C@H]3[C@@H]1CCC2=O | inactive
C=CS(=O)(=O)NC1CCN(C(=O)CNc2cc(I)c(Cl)cc2OC)CC1 | inactive
NC(=O)CCCSc1nc(N)nc(-c2c(Cl)cc3c4c(cccc24)COC3)n1 | inactive
CCc1c2c(nc3ccc(OC(=O)N4CCC(N5CCCCC5)CC4)cc13)-c1cc3c(c(=O)n1C2)COC(=O)[C@@]3(O)CC | inactive

What is the recorded call for this molecule in the test? CC#C[C@@]1(O)CC[C@H]2[C@@H]3CCC4=CC(=O)CCC4=C3[C@H](c3ccc(N(C)C)cc3)C[C@@]21C
active

Tell me the assay call for C[C@]12CCC(=O)C=C1CC[C@@H]1[C@H]2[C@H](O)C[C@@]2(C)[C@H]1CC[C@@]2(O)C(=O)CO please.
inactive

For this molecule, state the assay outcome: C[C@@]1(c2nc3c(C(N)=O)cccc3[nH]2)CCCN1
active

In this assay, the call recorded for CCOC(=O)c1[nH]c2cc(Cl)ccc2c1C(C(=O)NC(C)(C)C)N(C=O)Cc1ccc(Cl)cc1 (centres undefined) was what?
active

Which outcome did this test record for the molecule Cc1cc([N+](=O)[O-])ccc1NS(=O)(=O)c1cc(Cl)ccc1Cl ?
active

====

Catalogue of compounds with associated period change
experiment: compounds altering circadian rhythm period length – cell-based, LOPAC library, luminescence reporter (AID 2774); details: circadian reporter cells, at 7 µM, actives lie on both sides;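 further: values are relative to mean of DMSO wells on each plate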
Active and inactive are the calls of the source. No rule for the calls is given here.

CCn1cc(C(=O)O)c(=O)c2ccc(Cc3ccccc3)nc21 | -0.035 h (inactive)
OCC1NCC(O)C(O)C1O (stereo unspecified) | 0.035 h (inactive)
CNC(=O)[C@H]1O[C@@H](n2cnc3c(N)ncnc32)C(O)[C@H]1O (stereo partly specified) | 0.045 h (inactive)
CCCC[C@@]1(C2CCCC2)Cc2cc(OCC(=O)O)c(Cl)c(Cl)c2C1=O | -0.06 h (inactive)
CCCCCCCCCCCCCCCCCC(=O)NCC(COP(=O)([O-])OCC[N+](C)(C)C)OCC (stereo unspecified) | 0.195 h (inactive)
N[C@@H](CCC(=O)N[C@H](CSN=O)C(=O)NCC(=O)O)C(=O)O | 0.1 h (inactive)

I have this compound here, N#C/C(=C\c1ccc(O)c(O)c1)C(=O)NCCc1ccccc1 , and I need its recorded period change.
-0.04 h (inactive)

Returns the measured period change for the input compound. Input: C[C@H]1CC2C3CCC4=CC(=O)C=C[C@]4(C)[C@@]3(Cl)[C@@H](O)C[C@]2(C)[C@@]1(O)C(=O)CO (stereo partly specified)
-0.07 h (inactive)

Look at this compound and give its reported period change. O=C(O)C1CN(CCCP(=O)(O)O)CCN1 (stereo unspecified)
0.255 h (inactive)

Report period change for Cn1ccnc1 please.
0.39 h (inactive)

Given the compound CSc1nc(N)c2ncn([C@@H]3O[C@H](COP(=O)(O)OP(=O)(O)O)[C@H](O)C3O)c2n1 (stereo partly specified) , what is its reported period change?
-0.26 h (inactive)

Item under review: OC[C@H]1O[C@@H](n2cnc3cncnc32)[C@H](O)[C@@H]1O . Reported period change?
0.1 h (inactive)

Can you share its period change? I mean this compound: C=C/C(C)=C/[C@@]1(C)SC(=O)C(C)=C1O
-0.02 h (inactive)

Param item = NOCC(=O)O ; retrieve measured period change.
-0.075 h (inactive)

What measured period change goes with COc1cccc(OC)c1OCCNCC1CSc2ccccc2O1 (stereo unspecified) ?
0.065 h (inactive)

period change lookup needed for Fc1ccc(C(OCCCc2cnc[nH]2)c2ccc(F)cc2)cc1 , thanks.
0.11 h (inactive)

# input compound: O=C(O)/C=C/C(O)c1ccc(Cl)cc1 (stereo unspecified) ; wanted: its period change
0.15 h (inactive)
